Source of measurements: the supplement of paper PMC10567573

Known protein stability index of a selection of variants
B1: TMEM106C (parent)
chain: YVTTNVSLIPPRSEQLVNFTGKAE

variants of: B1; assay: protein stability index of a GFP-peptide fusion (GPS, HEK-293T) (PSI 1-6); higher = more stable; settings: c terminus: a fixed tail appended;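 further: lentivirally expressed fusions sorted by FACS into six bins by GFP to DsRed ratio, PSI derived from sequencing read proportions per bin multiplied by bin number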
Output: the number by itself.

sequence-entry | protein stability index
YFTTNVSLIPPRSEQLVNFTGKAE [V2F] | 2.98
YVTTNVSLIPPRSEQQVNFTGKAE [L16Q] | 1.92
YVTTNVSLIPGRSEQLVNFTGKAE [P11G] | 2.51
YVTTNVSPIPPRSEQLVNFTGKAE [L8P] | 1.75
YVTTNVSLIPPRSEQLKNFTGKAE [V17K] | 2.83

Task: Look up protein stability index for this variant: YVTTNVSLIPPRSEQLVNFTFKAE [G21F]
Result: 2.77

Task: Also YQTTNVSLIPPRSEQLVNFTGKAE [V2Q] ?
Result: 3.28

Task: What about YVTTNVSLIPYRSEQLVNFTGKAE [P11Y] ?
Result: 2.75

Task: Likewise for YVTTNVSLIPPRSEQCVNFTGKAE [L16C] ?
Result: 2.16

Task: Another variant: YVTLNVSLIPPRSEQLVNFTGKAE [T4L]
Result: 2.45

Task: Follow-up entry: YVTTNVSLIPPRSEQLVNFNGKAE [T20N]
Result: 1.53

Task: Try this variant too: YVTTNVSLIPTRSEQLVNFTGKAE [P11T]
Result: 1.74

Task: YVTTNVSLIPPRSEQLVNFTGKDE [A23D] ?
Result: 2

Task: Field entry: YVTTNVSLIPPRSEQLVNVTGKAE [F19V]
Result: 2.28

Task: Further, for YVTTNVSLIPKRSEQLVNFTGKAE [P11K] ?
Result: 2.01

Task: For YVTTNVSLIPPRSEILVNFTGKAE [Q15I] then?
Result: 2.37

Task: Another variant: YVTTNVSLIPPRSEQLVNFTWKAE [G21W]
Result: 2.5
